PROCEDURE_TEXT: DSSTox (CPDBAS) Carcinogenic Potency Database Summary MultiCellCall Results
CONDITION_DESCRIPTION: animal carcinogenicity bioassays, multi-cell call summary
Source text: The Carcinogenic Potency Database (CPDB) is a unique and widely used international resource of the results of over 6500 chronic, long-term animal cancer tests on over 1500 chemical substances. The CPDB provides easy access to the bioassay literature, with qualitative and quantitative analyses of both positive and negative experiments that have been published over the past 50 years in the general literature and by the National Cancer Institute/National Toxicology Program. […]
Calls of active or inactive are those of the source.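 How the source made its calls: active means tumour findings in long-term animal cancer tests in more than one sex, species or organ; inactive means no tumour finding and more than one negative test.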
// allowed return values: True (active), False (inactive)

What is the recorded call for this compound in the test? O[C@@H]([C@H](O)[C@@H](O)CBr)[C@@H](O)CBr
True

What is the recorded call for this compound in the test? CCc1ccccc1
True

What is the recorded call for this compound in the test? O=NN1CCCCC1C(=O)O (configuration not stated)
False

What is the recorded call for this compound in the test? Oc1ccc(O)cc1
True

What is the recorded call for this compound in the test? CCNC(=O)Nc1ncc([N+](=O)[O-])s1
True

What is the recorded call for this compound in the test? [Cl-].[Cl-].[Sn+2]
False

What is the recorded call for this compound in the test? Cc1ccc([N+](=O)[O-])cc1N
True

What is the recorded call for this compound in the test? Nc1ccc(N)c(Cl)c1
False

What is the recorded call for this compound in the test? C1N2CN3CN1CN(C2)C3
False

What is the recorded call for this compound in the test? CN1C(=O)C(O)N=C(c2ccccc2)c2cc(Cl)ccc21 (configuration not stated)
False

What is the recorded call for this compound in the test? OB(O)O
False

What is the recorded call for this compound in the test? CN(C)CCOC(C)(c1ccccc1)c1ccccn1 (configuration not stated)
True

What is the recorded call for this compound in the test? Cc1nnc2n1-c1sc(CCc3ccc(CC(C)C)cc3)cc1C(c1ccccc1Cl)=NC2C (configuration not stated)
False

What is the recorded call for this compound in the test? O=S(=O)(c1ccc(Cl)cc1)c1ccc(Cl)cc1
False

What is the recorded call for this compound in the test? Nc1ccc(Cl)cc1N
True

What is the recorded call for this compound in the test? COc1cc2c(c3oc(=O)c4c(c13)CCOC4=O)C1C=COC1O2 (configuration not stated)
True

What is the recorded call for this compound in the test? O.O.O.O.O=C([O-])CC(O)(CC(=O)[O-])C(=O)[O-].[Fe+3]
False

What is the recorded call for this compound in the test? O=C(O)Cc1c[nH]c2ccccc12
False

What is the recorded call for this compound in the test? O=C(O)COc1cc(Cl)c(Cl)cc1Cl
False

What is the recorded call for this compound in the test? CCCCCCCCCCCCN(C)N=O
True

What is the recorded call for this compound in the test? CCCCOC(=O)COc1ccc(Cl)cc1Cl
False

What is the recorded call for this compound in the test? CC(Cl)(Cl)Cl
False

What is the recorded call for this compound in the test? CC(C)COC(=O)c1ccc(O)cc1
False

What is the recorded call for this compound in the test? CN(C)C(=S)[S][Pb][S]C(=S)N(C)C
False

What is the recorded call for this compound in the test? Oc1cccc2cccnc12.Oc1cccc2cccnc12.[Cu]
False

What is the recorded call for this compound in the test? CN(C)C(=S)SC(=S)N(C)C
False

What is the recorded call for this compound in the test? CNCCc1ccc(OC(=O)C(C)C)c(OC(=O)C(C)C)c1
False
